The reported measurements were obtained from ChEMBL document CHEMBL1821579.

Please provide measured pIC50 for the entries that follow.
# Study System: Protein smoothened (Mus musculus, UniProt P56726)
# Sequence (P56726 whole entry): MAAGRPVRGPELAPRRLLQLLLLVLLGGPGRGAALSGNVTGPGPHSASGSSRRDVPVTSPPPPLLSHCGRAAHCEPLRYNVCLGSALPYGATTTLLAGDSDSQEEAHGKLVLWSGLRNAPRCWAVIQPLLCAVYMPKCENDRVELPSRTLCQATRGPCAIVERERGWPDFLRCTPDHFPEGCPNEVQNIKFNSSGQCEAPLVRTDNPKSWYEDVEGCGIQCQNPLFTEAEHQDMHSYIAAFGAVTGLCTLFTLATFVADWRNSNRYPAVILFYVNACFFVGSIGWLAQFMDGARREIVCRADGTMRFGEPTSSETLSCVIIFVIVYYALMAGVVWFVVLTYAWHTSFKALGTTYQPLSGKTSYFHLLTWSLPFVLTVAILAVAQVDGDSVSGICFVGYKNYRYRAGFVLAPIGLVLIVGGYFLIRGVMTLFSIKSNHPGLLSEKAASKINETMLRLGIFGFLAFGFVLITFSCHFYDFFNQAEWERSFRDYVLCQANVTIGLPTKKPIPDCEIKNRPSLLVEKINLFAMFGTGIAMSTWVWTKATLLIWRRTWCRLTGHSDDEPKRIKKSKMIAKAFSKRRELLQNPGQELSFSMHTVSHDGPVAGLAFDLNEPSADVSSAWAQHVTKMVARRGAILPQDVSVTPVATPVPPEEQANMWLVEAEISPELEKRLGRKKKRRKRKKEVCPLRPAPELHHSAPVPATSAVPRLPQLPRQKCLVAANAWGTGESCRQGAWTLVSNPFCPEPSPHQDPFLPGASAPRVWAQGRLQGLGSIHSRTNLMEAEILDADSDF
# Experiment Notes: Antagonist activity at mouse SMO expressed in NIH/3T3 cells transfected with Gli-dependent luciferase-reporter after 15 hrs by luciferase reporter gene assay using luminometer
Please express pIC50 as -log10 of the molar concentration.

Query: Suppose we examine the compound O=C(Nc1ccc(-c2cc(-c3ccccc3)ccn2)cc1)c1ccccc1Cl ; what pIC50 value has been reported?
Reply: 7.59

Query: Looking for the measured pIC50 of O=C(Nc1ccc(-c2nc(-c3ccccc3)c(C(F)(F)F)o2)cc1)c1ccccc1Cl , can you help?
Reply: 7.77

###

# Experiment Notes: Clearance in rat at 0.5 mg/kg, iv
# Assay type: ADME, organism-based
# Set-up: dose 0.5 mg/kg, route intravenous
# Particulars: in vivo
Experimental Endpoint: clearance (mL/min/kg)
Your answer should be a plain number; it is taken to be in mL/min/kg.

Query: GET /values?readout=clearance&item= O=C(Nc1ccc(-c2cc(-c3ccccc3)ccn2)cc1)c1ccccc1Cl
Reply: 2.83

Query: Quick one: clearance of O=C(Nc1ccc(-c2nc(-c3ccccc3)c(C(F)(F)F)o2)cc1)c1ccccc1Cl ?
Reply: 3.83

Query: Using the record for O=C(Nc1ccc(NC(=O)c2ccccc2Cl)cc1)c1ccccc1 , report its clearance.
Reply: 23.3
